Provenance of the data: patent US20230406864A1

Target: Human HPK1, catalytic domain (Homo sapiens)
Sequence (Q92918 1-346): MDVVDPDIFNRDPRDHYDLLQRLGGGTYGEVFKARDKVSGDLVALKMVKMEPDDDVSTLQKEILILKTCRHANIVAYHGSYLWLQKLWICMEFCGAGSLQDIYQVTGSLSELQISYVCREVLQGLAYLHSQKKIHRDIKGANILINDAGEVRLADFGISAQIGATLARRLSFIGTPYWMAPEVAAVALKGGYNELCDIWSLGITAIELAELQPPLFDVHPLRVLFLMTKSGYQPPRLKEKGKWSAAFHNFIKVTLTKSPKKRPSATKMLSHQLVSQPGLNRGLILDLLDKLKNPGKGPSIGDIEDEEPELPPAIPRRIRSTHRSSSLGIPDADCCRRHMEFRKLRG
measured-metric: IC50 (nM)

Solved entries:
[
  {
    "compound": "Cc1c(-c2ccc3cnc(Nc4cc5n(n4)CCN(CC(C)(C)O)C(=O)C5)nc3c2)cnc2c1NCCO2 [Example 1-8]",
    "IC50 (nM)": 0.675
  },
  {
    "compound": "Cc1c(-c2cc3nc(Nc4cnn(C)c4)ncc3c(N)c2F)cnc2c1NCCO2 [Example 2-10]",
    "IC50 (nM)": 0.13
  }
]

P: CCC(=O)N1CC(n2cc(Nc3ncc4ccc(-c5cnc6c(c5C)NCCO6)cc4n3)cn2)C1 [Example 1-3]
Q: Cc1c(-c2c(F)c(N)c3cnc(Nc4cnn(C5(C)CC5)c4)nc3c2Cl)cnc2c1NCCO2 [Example 2-43]
R: Cc1c(-c2ccc3cnc(Nc4cnn(C)c4)nc3c2)cnc2c1NCCO2 [Example 1-5]
Please list these compounds in decreasing order of IC50. Answer format: list of labels, ordered as asked. R, P, Q
(R: 0.71 nM, P: 0.26 nM, Q: 0.14 nM)
